Test system: Patient 2 TCC-01
methodDescription: IFN-γ ELISpot with T cell clone
Format: cell-based, human
cond: TCC Patient 2 TCC-01, peptide 25 μg/mL
[ ]: non-standard residue; d: D form. pGlu = O=C1CC[C@@H](C(=O)O)N1
propertyName: significant SFU as a percentage of maximal peptide SFU

sequenceChain | measurement
SEQYQPYPEQEQPFV [DQ2.5-ave-1b] | *** (***: >70%)
YQPYPEQEQPILQQ | *** (***: >70%)
QPQPYPEQPQPYP ([pGlu]PQPYPEQPQPYP-NH2; SMILES NC(=O)CC[C@H](NC(=O)[C@H](CCC(=O)O)NC(=O)[C@@H]1CCCN1C(=O)[C@H](Cc1ccc(O)cc1)NC(=O)[C@@H]1CCCN1C(=O)[C@H](CCC(N)=O)NC(=O)[C@@H]1CCCN1C(=O)[C@@H]1CCC(=O)N1)C(=O)N1CCC[C@H]1C(=O)N[C@@H](CCC(N)=O)C(=O)N1CCC[C@H]1C(=O)N[C@@H](Cc1ccc(O)cc1)C(=O)N1CCC[C@H]1C(N)=O) | *** (***: >70%)

====

Test system: PBMC
methodDescription: IFN-γ ELISpot on PBMC of CD patients on day 6 after 3-day oats challenge
Assay type: cell-based, human
cond: patient P3, peptide 1 μg/ml, after 3-day oats challenge
propertyName: IFN-γ ELISpot response (raw SFU)
Quick note: give the figure in SFU, leave out the unit.

Recorded results for 3 sequences are shown here.
sequenceChain | IFN-γ ELISpot response (raw SFU)
QYQPYPEQEEPFVQQQ | 20
QYQPYPEQQQPILQQQ [avenin peptide, Genbank AAB32025 (7-22), wild-type] | 1
SEQYQPYPEQQEPFVQ [avenin peptide of Genbank Q09097.1, wild-type] | 8

Consider the sequence shown here: EQYQPYPEQQPFMQPL [avenin peptide] What is its recorded IFN-γ ELISpot response (raw SFU)?
3

Lookup SEQYQPYPEQQQPFVQ [avenin peptide, wild-type]
1

====

Test system: PBMC
methodDescription: IFN-γ ELISpot on PBMC of CD patients after 3-day barley challenge
Assay type: cell-based, human
cond: Patient 1, peptide 50 μg/ml, after barley challenge
propertyName: IFN-γ ELISpot response (raw SFU)
Quick note: give the figure in SFU, leave out the unit.

Recorded results for 5 sequences are shown here.
sequenceChain | measurement
EQYQPYPEQQPFMQPL [avenin peptide] | 19
EQYQPYPEQEQPFVQQQPPF [avenin library peptide] | 99
SEQYQPYPEQEQPFVQ [deamidated avenin peptide containing DQ2.5-ave-1b] | 77
AQFDPSEQYQPYPEQQQPIL [avenin library peptide] | 35
QYQPYPEQEQPILQQQ [partially deamidated avenin peptide containing DQ2.5-ave-1c] | 58

Consider the sequence shown here: PSEQYQPYPEQEQPILQQEE [avenin library peptide] What is its recorded IFN-γ ELISpot response (raw SFU)?
27

Lookup EQYQPYPEQQQPFLQQQPLE [avenin library peptide]
25

Lookup SEQYQPYPEQEQPFLQEQPL [avenin library peptide]
122

====

Tested on: PBMC
methodDescription: IFN-γ ELISpot on PBMC of CD patients on day 6 after 3-day oats challenge
Format: cell-based, human
cond: patient P11, peptide 100 μg/ml, after 3-day oats challenge
Reported IFN-γ ELISpot response (raw SFU) values follow for various sequences
Quick note: give the figure in SFU, leave out the unit.

Recorded results for 2 sequences are shown here.
sequenceChain | measurement
SEQYQPYPEQQQPFVQ [avenin peptide, wild-type] | 0
QYQPYPEQQQPILQQQ [avenin peptide, Genbank AAB32025 (7-22), wild-type] | 4

Lab note: need IFN-γ ELISpot response (raw SFU) with PBMC for entry EQYQPYPEEQPFMQPL [partially deamidated avenin peptide] , please look it up.
1

====

System: PBMC
methodDescription: IFN-γ ELISpot on PBMC of CD patients on day 6 after 3-day oats challenge
Format: cell-based, human
cond: patient P11, peptide 100 μg/ml, after 3-day oats challenge
Reported IFN-γ ELISpot response (raw SFU) values follow for various sequences
Quick note: give the figure in SFU, leave out the unit.

Recorded results for 4 sequences are shown here.
sequenceChain | unitsOfMeasure | measurement
EQYQPYPEQQPFMQPL [avenin peptide] | SFU | 54
QYQPYPEQEQPILQQQ [partially deamidated avenin peptide containing DQ2.5-ave-1c] | SFU | 50
SEQYQPYPEQQEPFVQ [avenin peptide of Genbank Q09097.1, wild-type] | SFU | 0
QYQPYPEQEEPFVQQQ | SFU | 0

For the next question, use this sequence.
Consider the sequence shown here: SEQYQPYPEQEQPFVQ [deamidated avenin peptide containing DQ2.5-ave-1b] What is its recorded IFN-γ ELISpot response (raw SFU)?
0

====

System: Patient 2 TCC-01
methodDescription: IFN-γ ELISpot with T cell clone
Format: cell-based, human
cond: TCC Patient 2 TCC-01 (Table 5); mean no antigen 1.1
Where no end group is shown, it is not given here. [ ]: non-standard residue; d: D form. pGlu = O=C1CC[C@@H](C(=O)O)N1
propertyName: IFN-γ ELISpot response (raw SFU)
Quick note: give the figure in SFU, leave out the unit.

substance | unitsOfMeasure | measurement
EQYQPYPEQEQPFVQQQPPF [avenin library peptide] | SFU | 283

Consider the substance shown here: SEQYQPYPEQEQPFVQ [deamidated avenin peptide containing DQ2.5-ave-1b] What is its recorded IFN-γ ELISpot response (raw SFU)?
295

Lookup pEQPFTQPEQPTPIQ ([pGlu]QPFTQPEQPTPIQ) [wheat peptide, AAG17702.1 (78-91) [Q78 to pyroglutamate, Q85 to E], reference compound]
0

Lookup pEQPFPQPEQPTPIQ ([pGlu]QPFPQPEQPTPIQ) [rye peptide, AAB58403.1 (65-78) [Q65 to pyroglutamate, Q72 to E], reference compound]
1

Lookup pEQPFPQPEQPQLPF ([pGlu]QPFPQPEQPQLPF) [wheat peptide, AAK84772.1 (126-139) [Q126 to pyroglutamate, Q133 to E], reference compound]
4

Lookup pEPFPEQPEQPFPQP ([pGlu]PFPEQPEQPFPQP) [wheat peptide, ACO40292.1 (81-94) [Q81 to pyroglutamate, Q85 to E, Q88 to E], reference compound]
119

Lookup pEPEQIIPEQPEQPS ([pGlu]PEQIIPEQPEQPS) [rye peptide, AAB58403.1 (195-208) [Q195 to pyroglutamate, Q202 to E, Q205 to E], reference compound]
2

Lookup pEQPFPEQPFPEQPQPY ([pGlu]QPFPEQPFPEQPQPY) [barley peptide, AFM77740.1 (21-36) [Q21 to pyroglutamate, Q26 to E, Q31 to E]]
229

Lookup QYQPYPEQEQPILQQQ [partially deamidated avenin peptide containing DQ2.5-ave-1c]
288

====

Reported IFN-γ ELISpot response (raw SFU) values follow for various sequences
Tested on: PBMC
methodDescription: IFN-γ ELISpot on PBMC of CD patients on day 6 after 3-day oats challenge
Assay type: cell-based, human
cond: patient P11, peptide 1 μg/ml, after 3-day oats challenge
Please answer using a numeric value trailed by its unit.

Recorded results for 5 sequences are shown here.
sequenceChain | measuredTarget | IFN-γ ELISpot response (raw SFU)
SEQYQPYPEQEQPFVQ [deamidated avenin peptide containing DQ2.5-ave-1b] | PBMC | 0 SFU
QYQPYPEQEQPILQQQ [partially deamidated avenin peptide containing DQ2.5-ave-1c] | PBMC | 3 SFU
SEQYQPYPEQQQPFVQ [avenin peptide, wild-type] | PBMC | 0 SFU
QYQPYPEQQQPILQQQ [avenin peptide, Genbank AAB32025 (7-22), wild-type] | PBMC | 2 SFU
EQYQPYPEEQPFMQPL [partially deamidated avenin peptide] | PBMC | 0 SFU

Lab note: need IFN-γ ELISpot response (raw SFU) with PBMC for entry SEQYQPYPEQQEPFVQ [avenin peptide of Genbank Q09097.1, wild-type] , please look it up.
0 SFU

Lookup EQYQPYPEQQPFMQPL [avenin peptide]
3 SFU

Lookup QYQPYPEQEEPFVQQQ
2 SFU

====

Reported IFN-γ ELISpot response (raw SFU) values follow for various substances
System: Patient 2 TCC-01
methodDescription: IFN-γ ELISpot with T cell clone
Format: cell-based, human
cond: TCC Patient 2 TCC-01 (Table 5); mean no antigen 1.1
Where no end group is shown, it is not given here. [ ]: non-standard residue; d: D form. pGlu = O=C1CC[C@@H](C(=O)O)N1
Quick note: give the figure in SFU, leave out the unit.

Consider the substance shown here: pEQPQPYPEQPQPYP ([pGlu]QPQPYPEQPQPYP) [barley peptide, AFM77740.1 (31-44) [Q31 to pyroglutamate, Q38 to E]] What is its recorded IFN-γ ELISpot response (raw SFU)?
316

Lookup QPYPEQEQPILEEELLLQQQ [oats avenin peptide, CBL51491.1 (22-41) [Q28, Q33, Q34, Q35 to E]; one of two coded A01]
275

Lookup pEPEQPFPEQPQQII ([pGlu]PEQPFPEQPQQII) [rye peptide, AAB58403.1 (187-200) [Q187 to pyroglutamate, Q189 to E, Q194 to E], reference compound]
0
